MEASURED_ON: human recombinant PARP1 (Homo sapiens, UniProt P09874)
Construct: purchased Trevigen 4677-096-K
Sequence (P09874 whole entry): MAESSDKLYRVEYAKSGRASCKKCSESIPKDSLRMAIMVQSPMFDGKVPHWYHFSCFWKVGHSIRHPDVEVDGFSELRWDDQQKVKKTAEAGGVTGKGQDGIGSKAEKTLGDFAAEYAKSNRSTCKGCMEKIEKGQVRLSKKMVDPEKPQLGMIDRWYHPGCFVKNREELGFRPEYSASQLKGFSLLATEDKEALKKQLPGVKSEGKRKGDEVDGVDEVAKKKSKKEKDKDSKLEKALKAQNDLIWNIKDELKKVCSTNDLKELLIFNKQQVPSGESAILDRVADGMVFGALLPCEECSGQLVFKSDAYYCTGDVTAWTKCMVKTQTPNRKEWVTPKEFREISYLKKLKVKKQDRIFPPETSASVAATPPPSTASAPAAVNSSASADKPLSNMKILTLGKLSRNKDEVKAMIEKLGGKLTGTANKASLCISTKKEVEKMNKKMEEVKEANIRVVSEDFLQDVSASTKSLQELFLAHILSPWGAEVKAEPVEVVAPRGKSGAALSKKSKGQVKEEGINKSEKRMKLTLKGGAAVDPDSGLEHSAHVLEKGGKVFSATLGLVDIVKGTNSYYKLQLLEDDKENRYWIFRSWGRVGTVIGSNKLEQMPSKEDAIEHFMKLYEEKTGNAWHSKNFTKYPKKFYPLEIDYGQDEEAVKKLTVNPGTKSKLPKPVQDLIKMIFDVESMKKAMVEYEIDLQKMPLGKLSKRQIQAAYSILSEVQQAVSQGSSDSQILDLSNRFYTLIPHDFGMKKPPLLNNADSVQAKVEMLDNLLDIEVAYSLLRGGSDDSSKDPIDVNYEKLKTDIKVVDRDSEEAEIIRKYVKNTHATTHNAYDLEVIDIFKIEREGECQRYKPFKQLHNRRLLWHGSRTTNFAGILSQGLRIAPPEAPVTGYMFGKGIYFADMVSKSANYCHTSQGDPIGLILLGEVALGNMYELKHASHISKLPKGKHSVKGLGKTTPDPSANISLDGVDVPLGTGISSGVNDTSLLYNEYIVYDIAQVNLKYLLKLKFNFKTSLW
METHOD_SUMMARY: PARP inhibitory activity measurement test (Universal Colorimetric PARP Assay kit, Trevigen)
Format: biochemical
RUN_PARAMETERS: compound concentration: 10 μM, read-out: PARP1 inhibition rate (%)
PARAMETER_MEASURED: inhibition at 10 µM (%)

O=c1[nH]c2cc(CN3CCC(N4CCCCC4)CC3)cn2c2ccccc12 ... 96
O=c1[nH]c2cc(CN3CCN(c4cccnc4)CC3)cn2c2ccccc12 ... 95
O=C(c1cc2[nH]c(=O)c3ccccc3n2c1)N1CC=C(c2ccc(F)cc2)CC1 ... 51
COc1ccccc1N1CCN(Cc2cc3[nH]c(=O)c4ccccc4n3c2)CC1 ... 100
CC(C)(C)OC(=O)N1CCCN(C(=O)c2cc3[nH]c(=O)c4ccccc4n3c2)CC1 ... 93
O=C(c1cc2[nH]c(=O)c3ccccc3n2c1)N1CCNCC1 ... 85

[A] O=c1[nH]c2cc(CN3CCN(c4ccccc4)CC3)cn2c2ccccc12
[B] O=C(c1cc2[nH]c(=O)c3ccccc3n2c1)N1CCC(c2ccc(F)cc2)CC1
[C] O=c1[nH]c2cc(CN3CCc4ccccc4C3)cn2c2ccccc12
Lookup: Exam item: list the entries in increasing order of inhibition at 10 µM. # answer = labels listed in requested order
Found: B, C, A

====

MEASURED_ON: human recombinant PARP1 (Homo sapiens, UniProt P09874)
Construct: purchased Trevigen 4677-096-K
METHOD_SUMMARY: PARP inhibitory activity measurement test (Universal Colorimetric PARP Assay kit, Trevigen)
Format: biochemical
RUN_PARAMETERS: compound concentration: 10 μM, read-out: PARP1 inhibition rate (%)
Where a name gives a salt, the structure may show the parent alone.
PARAMETER_MEASURED: inhibition at 10 µM (%)

O=C(NCCN1CCOCC1)c1cc2[nH]c(=O)c3ccccc3n2c1 ... 96
O=c1[nH]c2cc(CN3CCN(c4ccc(F)cc4)CC3)cn2c2ccccc12 ... 100
O=c1[nH]c2cc(CN3CCN(c4ccccn4)CC3)cn2c2ccccc12 ... 100
O=c1[nH]c2cc(CN3CCN(c4ccc(Cl)cn4)CC3)cn2c2ccccc12 ... 100
O=c1[nH]c2cc(CN3CCCC3)cn2c2ccccc12 ... 96

[A] O=C(c1cc2[nH]c(=O)c3ccccc3n2c1)N1CCCNCC1 [Compound 5-1, hydrochloride]
[B] O=c1[nH]c2cc(CN3CCN(c4ccc(C(F)(F)F)cc4)CC3)cn2c2ccccc12
Lookup: Select the item whose inhibition at 10 µM value is smaller, choosing between A and B . Give the label under which the chosen entry appears.
Found: B
(B: 40%, A: 99%)

====

MEASURED_ON: human recombinant PARP1 (Homo sapiens)
Construct: purchased Trevigen 4677-096-K
METHOD_SUMMARY: PARP inhibitory activity measurement test (Universal Colorimetric PARP Assay kit, Trevigen)
Format: biochemical
RUN_PARAMETERS: compound concentration: 10 μM, read-out: PARP1 inhibition rate (%)
PARAMETER_MEASURED: inhibition at 10 µM (%)

O=C(c1cc2[nH]c(=O)c3ccccc3n2c1)N1CCC(c2ccccc2)CC1 ... 71
O=c1[nH]c2cc(CN3CCC(c4ccc(F)cc4)CC3)cn2c2ccccc12 ... 100
O=C(NCc1ccccc1)c1cc2[nH]c(=O)c3ccccc3n2c1 ... 81
O=c1[nH]c2cc(CN3CCN(Cc4ccc(F)cc4)CC3)cn2c2ccccc12 ... 96
O=C(c1cc2[nH]c(=O)c3ccccc3n2c1)N1CCN(c2cccc(F)c2)CC1 ... 74

[P] O=c1[nH]c2cc(CN3CCN(c4ccc(Cl)cc4)CC3)cn2c2ccccc12
[Q] O=C(c1cc2[nH]c(=O)c3ccccc3n2c1)N1CCN(Cc2ccc(Cl)cc2)CC1
Lookup: Select the item whose inhibition at 10 µM value is smaller, choosing between P and Q . Give the label under which the chosen entry appears.
Found: Q
